Target: T1, CaBdf1 BD1 (GST-tagged, wild-type) (Candida albicans (strain SC5314 / ATCC …, UniProt Q5A4W8))
T1 chain: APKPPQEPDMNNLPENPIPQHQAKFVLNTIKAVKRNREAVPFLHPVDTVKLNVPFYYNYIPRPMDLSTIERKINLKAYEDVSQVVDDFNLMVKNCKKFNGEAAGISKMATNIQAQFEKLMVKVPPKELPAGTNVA
Experiment: histone peptide array (Active Motif MODified), 1 uM GST-tagged bromodomain, anti-GST detection, normalized mean intensity
Square brackets hold non-standard residues; d marks the D form. Ends that are not written are not given here. Arg(Me2s) = CN=C(NC)NCCC[C@H](N)C(=O)O; pT = C[C@@H](OP(=O)(O)O)[C@H](N)C(=O)O
Listing: binding score of selected binders

| BINDER | binding score |
| --- | --- |
| ARTKQTARKSTGGKAPRKQ (A R T K Q T A R Kme1 pS T G G K A P R K Q) | 0.00181 |
| PRKQLATKAARKSAPATGG (P R K Q L A T K A A Rme2a Kme3 S A P A T G G) | 0.00363 |
| A[Arg(Me2s)][pT]K(Me)QTARKSTGGKAPRKQ | 0.00181 |
| ARTK(me2)QTAR(me2s)K(me3)STGGKAPRKQ | 0.0029 |

The reported value for ARTKQTARKSTGGKAPRKQ (A R T Kme3 Q T A Rme2s Kme3 S T G G K A P R K Q) in terms of binding score is 0.00399

Lab note: measured binding score of SGRGKGGKGLGKGGAKRHR (S G Rme2s G K G G K G L G K G G A K R H R) was 0.00399
